# test details: yeast display, Sf9 membrane polyspecificity reagent, FACS + sequencing; frameworks hold sequencing errors
metric: polyreactivity (PSR sort gate)

sequence entry	result
QVQLVESGGGLVQAGGSLRLSCAASGSIFSKYTMGWYRQAPGKERELVAAIRGSGVRTYYADSVKGRFTISRDNAKNTVYLQMNSLKPEDTAVYYCAKVVYRGKVALWISSTAGSDYWGQGTQVTVSS	low polyreactivity
QVQLVESGGGLVQAGGSLRLSCAASGFIFGAYAMGWYRQAPGKERELVAAITKSGGRTYYADSVKGRFTISRDNAKNTVYLQMNSLKPEDTAVYYCAAVTRYPGEYDYWGQGTQVTVSS	high polyreactivity
QVQLVESGGGLVQAGGSLRLSCAASGSIFAYYAMGWYRQAPGKESELVARITYSTDGTYYADSVKGRFTISRDNAKNTVYLQMNSLKPEDTAVYYCAVDTWWGFKRYKFDYWGQGTQVTVSS	low polyreactivity
QVQLVESVGGLVQAGGSLRLSCAASGITFYYYVMGWYRQAPGKERELVAAIDTGDSTYYADSVKGRFTISRDNAKNTVYLQMNSLKPEDTAVYYCAVDYEADNELNGPDQEYGRDSWGQGTQVTVSS	low polyreactivity
QVHLVESGGGLVQAGGSLRLSCAASGSIFYVYAMVWYRQAPGKERELVAAITWSGGSTYYADSVKGRFTISRDNAKNTVYLQMNSLNPEDTAVYYCAADEGYDYPYYYWGQGTQVSVSS	high polyreactivity
QVQLVETGGGLVQAGGSLRLSCAASGSISGFIDMGWYRQAPGKERELVAAISYSGGRTYYADSVKGLFTISRDNAKNTVFLQMNSLKPEDTAVYYCAADKFIYSKYTVIRDDYWGQGTQVTVSS	high polyreactivity
QVQLVESGGGLVQAGGSLRLSCAASGRTFRIYAMGWYRQAPGKERELVATISGRGGNTYYADSVKGRFTISRDNAKNTVYLQMNSLKPEDTAVDYCAADDATAYRVDGFKYDYWGQGTLVTVSS	high polyreactivity
QVQLVESGGGLVQAGGSLRLSCAASGSIFEYYAMGWYRQAPGKERELVASITSSGTTYYADSVKGRFTISRDNAKNTVYLQMNSLKPEDTAVYYCAAYFAYLDSYVTYEYDYWGQGTQVTVSS	low polyreactivity
QVQLVESGGGLVQAGGSLSLSCAASGLTFRSYTMGWYRQAPGKERELVAAISSGGSTYYADSVKGRFTISRDNAKNTVYLQMNSLKPEDTAVYYCAAPRGHGKYYSWGQGTQVTVSS	high polyreactivity
QVQLVESGGGLVQAGGSLRLSCAASGSTFLGYAMGWSRQAPGKERELVAAINLSTSGTYYADSVKGRFTISRDNAKNTVYLQMNSLKPEDTAVYYCAAAYSNINYYYQYYYWGQGTQVTVSS	low polyreactivity
QVQLVESGGGLVQAGGSLRLSCAASGSTFGYYTMGWYRQAPGKERQLVAAISWSGGSTYYADSVKGRFTISRDNAKNTVYLLMNSLKPEDTAVYYCARGSQYRLWRTPHYYWGQGTQVTVSS	high polyreactivity
QVQLVESGGGLVQAGGSLRLSCAASGFTFRVNAMGWYRQAPGKERELVAAISSGGGITYYADSVKGRYTISRDNAKNTVYLQMNSLKPEDTAVYYCAARENRYLERDYWGQGTQVNVSS	low polyreactivity

Values were extracted from the nanobody polyreactivity screen of Harvey et al. (2022).
